- measurement.target: Bcl-xL (biotinylated pro-survival Bcl-2 family protein) (UniProt Q07817 1-209, biotinylated (co-expressed E. coli biotin ligase BirA))
- Sequence (Q07817 1-209): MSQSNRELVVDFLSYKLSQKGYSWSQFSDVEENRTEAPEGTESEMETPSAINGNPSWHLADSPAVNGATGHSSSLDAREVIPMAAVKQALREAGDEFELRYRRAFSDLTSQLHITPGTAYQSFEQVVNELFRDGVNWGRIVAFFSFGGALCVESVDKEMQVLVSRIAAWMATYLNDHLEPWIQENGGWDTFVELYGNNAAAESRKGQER
- assay.overview: flow cytometry of E. coli displaying the peptide on eCPX, biotinylated target + streptavidin-PE; apparent Kd
Where no end group is shown, it is not given here. eCPX = enhanced circularly permuted OmpX display scaffold; linker = not defined here
measured.attribute: pKd
Interpret pKd as the negative base-10 log of the concentration measured in mol/L.

Look over these answered cases.
| binder | measured.attribute | assay.value |
| --- | --- | --- |
| WLAQLLRRIGDEIN-{linker-eCPX} (reading uncertain; also: printed as Trp-Leu-Ala-Gln-Leu-Leu-Arg-Arg-Ile-Gly-Asp-Glu-Ile-Asn, Clone selected against Mcl-1; not shown: eCPX display scaffold and its linker, fused C-terminal to the peptide) [Bim BH3 14-mer variant M2-4 displayed on eCPX] | pKd | 6.48 |
| WIAQELRRIGDEFN-{linker-eCPX} (reading uncertain, also called WT; Bim WT; not shown: eCPX (enhanced circularly permuted OmpX) display scaffold and its linker, fused C-terminal to the peptide) [wild-type Bim BH3 14-mer peptide (residues 147-160) displayed on eCPX] | pKd | 6.60 |
| WLAQLLRRYGDEFN (also: displayed as fusion to eCPX scaffold (letters not given here), Clone selected against Bcl-xL; not shown: eCPX display scaffold and the linker to it) [Bim BH3 14-mer variant X2-8 displayed on eCPX] | pKd | 7.75 |
| WIAQQLRRIGDEFN (not fully specified, also called pseudo-wild-type Bim; Bim E151Q; not shown: eCPX display scaffold and the linker to it) [Bim BH3 14-mer E151Q (pseudo-wild-type) displayed on eCPX] | pKd | 7.32 |
| WVAQWLRRWGDEFN (also: displayed as fusion to eCPX scaffold (letters not given here), Clone selected against Bcl-xL; not shown: eCPX display scaffold and the linker to it) [Bim BH3 14-mer variant X2-3 displayed on eCPX] | pKd | 8.03 |

Turning now to a further record.
Incoming: Find the recorded pKd belonging to WVAQLLRRIGDEVN-{linker-eCPX} (reading uncertain; also: printed as Trp-Val-Ala-Gln-Leu-Leu-Arg-Arg-Ile-Gly-Asp-Glu-Val-Asn, Clone selected against Mcl-1; not shown: eCPX display scaffold and its linker, fused C-terminal to the peptide) [Bim BH3 14-mer variant M2-2 displayed on eCPX] and report it.
Outgoing: 5.55
